Where do the numbers come from? From patent US5521208A.

Experimental Protocol: Plasma pharmacokinetics in rats following a 2 mg/kg intravenous bolus injection
Format: in vivo, male Sprague-Dawley rats
Assay Conditions: rat, plasma, iv, 72 hours, 2 mg/kg i.v. bolus, Mean ± SD (N = 3)
Collected concentration at 72 h values appear next to each entry.

Compound | concentration at 72 h / ng/mL
COc1cc(F)cc2c1-c1ccc(F)cc1[C@]21NC(=O)NC1=O [A(-)] | 4
COc1cc(F)cc2c1-c1ccc(F)cc1[C@@]21NC(=O)NC1=O [A(+)] | 67
COc1cc(F)cc2c1-c1ccc(F)cc1C21NC(=O)NC1=O (racemic) [A(±)] | 3

----------
Collected concentration at 4 h values appear next to each entry.
Experimental Protocol: Plasma pharmacokinetics in rats following a 2 mg/kg intravenous bolus injection
Assay type: in vivo, male Sprague-Dawley rats
Assay Conditions: rat, plasma, iv, 4 hours, 2 mg/kg i.v. bolus, Mean ± SD (N = 3)

Compound | Unit Tag | concentration at 4 h
COc1cc(F)cc2c1-c1ccc(F)cc1C21NC(=O)NC1=O (racemic) [A(±)] | ng/mL | 3590
COc1cc(F)cc2c1-c1ccc(F)cc1[C@@]21NC(=O)NC1=O [A(+)] | ng/mL | 2360
COc1cc(F)cc2c1-c1ccc(F)cc1[C@]21NC(=O)NC1=O [A(-)] | ng/mL | 3800

----------
Collected concentration at 1 h values appear next to each entry.
Experimental Protocol: Plasma pharmacokinetics in rats following a 2 mg/kg intravenous bolus injection
Type: in vivo, male Sprague-Dawley rats
Assay Conditions: rat, plasma, iv, 1 hour, 2 mg/kg i.v. bolus, Mean ± SD (N = 3)

Compound | concentration at 1 h / ng/mL
COc1cc(F)cc2c1-c1ccc(F)cc1[C@@]21NC(=O)NC1=O [A(+)] | 2970
COc1cc(F)cc2c1-c1ccc(F)cc1C21NC(=O)NC1=O (racemic) [A(±)] | 5080
COc1cc(F)cc2c1-c1ccc(F)cc1[C@]21NC(=O)NC1=O [A(-)] | 7330

----------
Assayed Target: Rat L-Hexonate Dehydrogenase (L-HDH) (Rattus norvegicus, UniProt P51635)
Sequence (P51635 1-325): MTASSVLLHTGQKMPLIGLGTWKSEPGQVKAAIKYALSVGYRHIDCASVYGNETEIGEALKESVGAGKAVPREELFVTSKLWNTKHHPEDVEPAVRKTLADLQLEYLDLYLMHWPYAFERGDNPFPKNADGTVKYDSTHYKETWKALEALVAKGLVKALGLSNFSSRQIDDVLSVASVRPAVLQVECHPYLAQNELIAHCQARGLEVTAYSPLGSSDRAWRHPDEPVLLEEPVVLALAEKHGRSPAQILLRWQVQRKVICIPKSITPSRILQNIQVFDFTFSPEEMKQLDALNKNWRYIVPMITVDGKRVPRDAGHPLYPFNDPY

Compound | Unit Tag | IC50
COc1cc(F)cc2c1-c1ccc(F)cc1[C@]21NC(=O)NC1=O [A(-)] | µM | 3
COc1cc(F)cc2c1-c1ccc(F)cc1C21NC(=O)NC1=O (racemic) [A(±)] | µM | 2.2
COc1cc(F)cc2c1-c1ccc(F)cc1[C@@]21NC(=O)NC1=O [A(+)] | µM | 3

----------
Experimental Protocol: Plasma pharmacokinetics in rats following a 2 mg/kg intravenous bolus injection
Assay type: in vivo, male Sprague-Dawley rats
Assay Conditions: rat, plasma, iv, 144 hours, 2 mg/kg i.v. bolus, Mean ± SD (N = 3), ND = Not Detected (lower limit of detection 2 ng/mL)
Endpoint: concentration at 144 h (ng/mL)

Compound | Unit Tag | Reported Value
COc1cc(F)cc2c1-c1ccc(F)cc1C21NC(=O)NC1=O (racemic) [A(±)] | ng/mL | 11
COc1cc(F)cc2c1-c1ccc(F)cc1[C@@]21NC(=O)NC1=O [A(+)] | ng/mL | 9
